Where do the numbers come from? From patent US8148391B2.

Reported values of IC50 for individual entries
Target: c-Met (cytoplasmic domain) (Homo sapiens, UniProt P08581)
Construct: 10 ng/mL c-Met (cytoplasmic domain, Invitrogen Corporation #PV3143); purchased Invitrogen Corporation PV3143
Sequence (P08581 956-1390 limits assumed): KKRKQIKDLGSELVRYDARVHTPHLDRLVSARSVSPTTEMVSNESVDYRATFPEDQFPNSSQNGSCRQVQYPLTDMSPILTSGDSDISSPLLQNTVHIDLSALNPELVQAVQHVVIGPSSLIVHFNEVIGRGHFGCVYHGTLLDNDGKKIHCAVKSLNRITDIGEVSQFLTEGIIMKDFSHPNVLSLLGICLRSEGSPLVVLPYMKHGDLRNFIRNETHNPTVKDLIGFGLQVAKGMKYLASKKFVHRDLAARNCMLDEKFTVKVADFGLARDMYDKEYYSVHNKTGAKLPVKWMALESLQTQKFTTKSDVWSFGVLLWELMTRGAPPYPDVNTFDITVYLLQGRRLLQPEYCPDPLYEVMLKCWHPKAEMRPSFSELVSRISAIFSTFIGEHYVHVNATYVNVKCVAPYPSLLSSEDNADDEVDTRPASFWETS
Experiment: c-Met Kinase Assay (same methods as for ALK, with modifications)
Assay type: biochemical
Conditions: c-Met kinase inhibition, 1 μM ATP (Km level); read-out: cMet Activity
Where a name gives a salt, the structure may show the parent alone.
MEASURED ATTRIBUTE: IC50

CCN1CCN(CC)c2cc(Nc3ncc(Cl)c(Nc4ccccc4NS(C)(=O)=O)n3)ccc2C1=O [Example 423] ... 100 to 1000 nM
CN1C(=O)CCC(C)(C)c2cc(Nc3ncc(Cl)c(N[C@@H]4CCCC[C@H]4NS(C)(=O)=O)n3)ccc21 [Example 385] ... 100 to 1000 nM
COCCN1C(=O)CCCc2c1ccc(Nc1ncc(Cl)c(Nc3ccc(N4CCOCC4)cc3OC)n1)c2OC [Example 127] ... > 10000 nM
COCCN1CCc2ccc(Nc3ncc(Cl)c(NC4C5CCC(C5)C4C(N)=O)n3)cc2CC1 (stereo not drawn) [Example 177] ... 100 to 1000 nM
CNC(=O)c1ccccc1Nc1nc(Nc2ccc3c(c2)C2CCC3CN(S(C)(=O)=O)C2)ncc1Cl (stereo not drawn) [Example 278] ... < 100 nM
CCN1CCc2cc(Nc3ncc(Cl)c(NC4C5C=CC(C5)C4C(N)=O)n3)c(OC)cc2CC1=O (stereo not drawn) [Example 252] ... > 10000 nM
CNC(=O)c1cccc(F)c1Nc1nc(Nc2ccc3c(c2)C2CCC(C3)N2CCOC)ncc1Cl (stereo not drawn) [Example 456] ... < 100 nM
CNC(=O)c1ccccc1Nc1nc(Nc2ccc3c(c2)C2CCC(C3)N2S(C)(=O)=O)ncc1Cl (racemic) [Example 102] ... < 100 nM
CCC1C(=O)N(CC)CCc2c1ccc(Nc1ncc(Cl)c(Nc3ccccc3C(=O)NC)n1)c2OC (stereo not drawn) [Example 152] ... 1000 to 10000 nM
CN1CCNCc2ccc(Nc3ncc(Cl)c(N[C@@H]4CCCC[C@H]4NS(C)(=O)=O)n3)cc21 [Example 475] ... 1000 to 10000 nM
CN1CCNCc2cc(Nc3ncc(Cl)c(N[C@@H]4CCCC[C@H]4NS(C)(=O)=O)n3)ccc21 [Example 422] ... 1000 to 10000 nM
CS(=O)(=O)N[C@@H]1CCCC[C@H]1Nc1nc(Nc2ccc3c(c2)CNC(=O)NC3)ncc1Cl [Example 226] ... 1000 to 10000 nM
CC(=O)OCCN1CCN(C)c2cc(Nc3ncc(Cl)c(N[C@@H]4CCCC[C@H]4NS(C)(=O)=O)n3)ccc2C1 [Example 476] ... 1000 to 10000 nM
CN1CCNCc2ccc(Nc3ncc(Cl)c(Nc4ccccc4NS(C)(=O)=O)n3)cc21 [Example 471, hydrochloride] ... 1000 to 10000 nM
CCN1CCc2cc(Nc3ncc(Cl)c(Nc4ccccc4C(=O)NC)n3)c(OC)c(N)c2CC1 [Example 50] ... > 10000 nM
